- System: cisplatin-resistant A2780cisR cells
- Assay Comment: MTT cytotoxicity test, A2780cisR cells
- Assay type: cell-based, Human
- Run Parameters: A2780cisR*; in the dark with no irradiation; 6 h treatment
Form field: pIC50 (one value per entry).
The scale used: pIC50 is minus the common logarithm of the concentration in molar units.

O=C1[O][Pt]2([NH][C@@H]3CCCC[C@H]3[NH]2)[O]C1=O [Oxaliplatin, reference compound]; 3.60

# next compound below
Fill in: pIC50 of N.N.O=C([O-])C1(C(=O)[O-])CCC1.[Pt+2] [Carboplatin, reference compound] is ___
3.18

###

- Tested on: Human ovarian carcinoma A2780 cells
- Assay Comment: MTT cytotoxicity test, A2780 cells
- Assay type: cell-based
- Run Parameters: in the dark with no irradiation, 6 h treatment
Form field: IC50 (one value per entry).
Expressed in µM, but write only the number.

N.N.O=C([O-])C1(C(=O)[O-])CCC1.[Pt+2] [Carboplatin, reference compound]; 303

Entry O=C1[O][Pt]2([NH][C@@H]3CCCC[C@H]3[NH]2)[O]C1=O [Oxaliplatin, reference compound] , system Human ovarian carcinoma A2780 cells: what IC50 was measured?
86.5

###

Form field: IC50 (one value per entry).
- Tested on: cisplatin-resistant A549cisR cells
- Assay Comment: MTT cytotoxicity test, A549cisR cells
- Type: cell-based, Human
- Run Parameters: A549cisR*; in the dark with no irradiation; 6 h treatment

Guide cases for IC50, answers given:
O=C1[O][Pt]2([NH][C@@H]3CCCC[C@H]3[NH]2)[O]C1=O [Oxaliplatin, reference compound]; 258 µM
CCN(CC)c1ccc2cc(C(=O)/C=C/c3ccc(N(C)CCC(=O)[O][Pt]4([NH2])([NH2])([OH])[O]C(=O)C5(CCC5)C(=O)[O]4)cc3)c(=O)oc2c1; > 50 µM
CCN(CC)c1ccc2cc(C(=O)/C=C/c3ccc(N(C)CCC(=O)[O][Pt]4([NH2])([NH2])([O]C(=O)Cc5cccc6c(=O)c7ccc(C)c(C)c7oc56)[O]C(=O)C5(CCC5)C(=O)[O]4)cc3)c(=O)oc2c1; > 50 µM

# next compound below
Fill in: IC50 of N.N.O=C([O-])C1(C(=O)[O-])CCC1.[Pt+2] [Carboplatin, reference compound] is ___
> 700 µM

The values you see were collected from patent US12617812B2.
